# System: PC-3
# protocolNotes: Cytotoxicity against human PC3 cells assessed as reduction in cell viability after 48 hrs by MTT assay
# Type: functional, cell-based
# reportedConditions: Homo sapiens, PC-3, 48 h
IC50 values, listed per item
Your reply should be a number followed by the unit it is expressed in.

structureNotation	systemName	val
COc1cc(NC(=O)NCCCl)c2cc1Oc1ccc(cc1)C[C@H]1c3cc(c(OC)cc3CCN1C)Oc1c(OC)c(OC)cc3c1[C@H](C2)N(C)CC3	PC-3	4.91 µM
COc1cc(NC(=O)Nc2ccc(C(F)(F)F)cc2)c2cc1Oc1ccc(cc1)C[C@H]1c3cc(c(OC)cc3CCN1C)Oc1c(OC)c(OC)cc3c1[C@H](C2)N(C)CC3	PC-3	5.2 µM
COc1cc(NC(=O)NC(C)(C)C)c2cc1Oc1ccc(cc1)C[C@H]1c3cc(c(OC)cc3CCN1C)Oc1c(OC)c(OC)cc3c1[C@H](C2)N(C)CC3	PC-3	2.97 µM
COc1cc(NC(=O)NCc2ccccc2)c2cc1Oc1ccc(cc1)C[C@H]1c3cc(c(OC)cc3CCN1C)Oc1c(OC)c(OC)cc3c1[C@H](C2)N(C)CC3	PC-3	5.73 µM

Query block: Value lookup for IC50; key = COc1cc(NC(=O)NCCc2ccccc2)c2cc1Oc1ccc(cc1)C[C@H]1c3cc(c(OC)cc3CCN1C)Oc1c(OC)c(OC)cc3c1[C@H](C2)N(C)CC3
Result block: 5.9 µM

Where do these numbers come from? They come from ChEMBL document CHEMBL4138174.
